Below is a list of entries, each paired with its recorded neutralization IC50 value.
biological target: Env of HIV-1 strain 251-18 (HIV-1); assay: cell-based or functional assay
measurement_kind: neutralization IC50 (µg/mL)

[[record]]
binder = "8ANC195 IgG (antibody, V domains shown) VH: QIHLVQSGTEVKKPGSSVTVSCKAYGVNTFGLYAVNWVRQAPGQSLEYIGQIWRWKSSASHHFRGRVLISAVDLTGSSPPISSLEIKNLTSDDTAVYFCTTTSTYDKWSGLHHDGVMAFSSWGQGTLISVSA VL: DIQMTQSPSTLSASIGDTVRISCRASQSITGNWVAWYQQRPGKAPRLLIYRGAALLGGVPSRFSGSAAGTDFTLTIGNLQAEDFGTFYCQQYDTYPGTFGQGTKVEV"
comparison_symbol = "="
reported_measurement = 0.284

[[record]]
binder = "γ3κ3 (antibody, V domains shown) VH: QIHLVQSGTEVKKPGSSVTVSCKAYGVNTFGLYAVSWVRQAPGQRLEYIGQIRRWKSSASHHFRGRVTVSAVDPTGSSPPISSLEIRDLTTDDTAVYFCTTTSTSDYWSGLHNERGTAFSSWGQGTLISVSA VL: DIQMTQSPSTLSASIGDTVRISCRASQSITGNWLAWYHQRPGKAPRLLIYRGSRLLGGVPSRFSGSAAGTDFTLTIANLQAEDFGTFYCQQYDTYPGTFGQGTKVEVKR"
comparison_symbol = ">"
reported_measurement = 15


Where these numbers come from: patent US20180171001A1
